B1: ATL3 (parent)
chain: QELEEEIKELYENFCKHNGSKNVF

# Variants of: B1
# PROCEDURE_SUMMARY: protein stability index of a GFP-peptide fusion (GPS, HEK-293T) (PSI 1-6); higher = more stable;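 note: lentivirally expressed fusions sorted by FACS into six bins by GFP to DsRed ratio, PSI derived from sequencing read proportions per bin multiplied by bin number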
# CONDITION: c terminus: a fixed tail appended
OBSERVATION_TYPE: protein stability index
Could you keep your reply to the number by itself?

Guide cases for protein stability index, answers given:
mutation_code=G19R test_value=2.54
mutation_code=K21L test_value=2.15
mutation_code=G19V test_value=2.35

## Input Indicate the recorded protein stability index value for this variant: E2F
## Output 2.57

## Input Please indicate protein stability index recorded for L10R
## Output 4.2

## Input Give the value of protein stability index reported for the following: Q1A
## Output 2.22

## Input Report measured protein stability index; entry is K8A
## Output 2.96

## Input Provide one value: measured protein stability index of N18T
## Output 2.6
